Target: Luciferin 4-monooxygenase (Photinus pyralis) (UniProt P08659)
Sequence (P08659 whole entry, looked up): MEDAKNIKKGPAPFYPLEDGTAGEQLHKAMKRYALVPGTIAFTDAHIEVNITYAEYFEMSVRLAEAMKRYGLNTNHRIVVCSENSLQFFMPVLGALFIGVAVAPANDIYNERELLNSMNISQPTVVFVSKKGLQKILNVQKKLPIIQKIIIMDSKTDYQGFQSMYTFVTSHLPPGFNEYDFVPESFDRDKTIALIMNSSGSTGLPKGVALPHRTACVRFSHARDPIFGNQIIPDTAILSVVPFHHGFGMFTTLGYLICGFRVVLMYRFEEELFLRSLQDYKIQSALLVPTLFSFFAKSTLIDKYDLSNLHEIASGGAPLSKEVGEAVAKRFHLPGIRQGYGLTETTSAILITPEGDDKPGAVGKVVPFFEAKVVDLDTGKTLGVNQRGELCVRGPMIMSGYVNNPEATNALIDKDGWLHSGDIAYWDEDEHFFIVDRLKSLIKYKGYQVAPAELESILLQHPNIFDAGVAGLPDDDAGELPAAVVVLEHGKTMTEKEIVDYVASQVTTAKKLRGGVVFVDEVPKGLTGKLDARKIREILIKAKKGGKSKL
Assay: firefly luciferase enzyme inhibitors, primary screen, biochemical, luminescence, purified enzyme, 2006 set (AID 1141);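 also: cell-free assay with purified firefly luciferase at 100 ng per well in PBS; test concentration not given here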
Settings: SteadyGlo luminescence, 30 min, higher = more signal, called active from +8 up or from −8 down
# key: entry, value: z-score
Give your answer as a number; write no unit.

Recorded z-score, per entry:
{"compound": "COCCCNC(=O)[C@@]1(Sc2ccc(C)cc2)CC(=O)N(Cc2cc(C(F)(F)F)cc(C(F)(F)F)c2)[C@@H]1c1ccc(CO)cc1I", "measured": -0.503}
{"compound": "[N-]=[N+]=NCc1ccccc1C[C@@]1(C(=O)N2CCOCC2)N=C(c2ccc(OCCCO)cc2)O[C@@H]1c1ccccc1N=[N+]=[N-]", "measured": -8.34}
{"compound": "COCCOC(=O)N1C(=O)[C@@]2(c3cc(C#CCCO)ccc31)[C@H](C(=O)N1CCCCCCC1)[C@H]1C(=O)O[C@H](c3ccccc3)[C@H](c3ccccc3)N1[C@@H]2c1ccc(O)cc1", "measured": -0.888}

I am curious: what z-score value has been reported for CC(=O)NCCCC[C@@H]1NC(=O)[C@@H]2C[C@H](C(=O)NCCCCCCN(C)C)[C@H](c3ccc(O)cc3)N2C1=O ? -0.916

Also check CCCC=C(CCC)[C@@H](NC(=O)c1ccccc1)c1ccccc1 0.0419

And C/C(=N\O)C(=O)NCCCCCNC(=O)OCc1ccccc1 ? -1.72

COC(=O)C[C@H]1O[C@]2(C(=O)N(C)c3ccccc32)[C@@H](C)[C@@H]1[Si](C)(C)c1ccc(OC)cc1 , same question. -0.274

How about this compound: C=CCN(C(=O)C1N(c2ccc(CCO)cc2)C(=O)C2C(C(=O)O)C3C=CC21O3)C(C)(C)C (stereo not drawn) -0.163
